tested on: phosphorylation of CDK1 at Thr14 in HCC1806 cells; assay: Cell lysate AlphaLISA assay measuring inhibition of phosphorylation of CDK1 Thr14; format: cell-based; settings: 4 hours, read-out: Cellular IC50
Assignment: determine reported IC50 for the given compounds.

Give the measured IC50 of NC(=O)c1cc2nccnc2c(-c2c(Cl)ccc3[nH]ncc23)c1N (atropisomer, axis not shown) [Compound 246] . 0.5 to 1 µM

Give the measured IC50 of Cc1ccc(O)c(C)c1-c1c(N)c(C(N)=O)cc2cccnc12 (single isomer, unassigned) [Compound 65] . ≥ 5 µM

Give the measured IC50 of Cc1cnc2cc(C(N)=O)c(N)c(-c3cccc(O)c3C)c2n1 (atropisomer, axis not shown) [Compound 169] . 0.5 to 1 µM

Give the measured IC50 of Cc1ccc2[nH]nc(F)c2c1-c1c(N)c(C(N)=O)cc2nccnc12 [Compound 176] . ≥ 5 µM

Give the measured IC50 of Cc1c(O)cccc1-c1c(N)c(C(N)=O)cc2ncc(C(F)(F)F)nc12 (single isomer, unassigned) [Compound 125] . ≥ 5 µM

Give the measured IC50 of Cc1c(O)cccc1-c1c(N)c(C(N)=O)cc2nc(C(F)(F)F)c(O)nc12 [Compound 133] . 1 to 5 µM

Give the measured IC50 of Cc1ccc(O)c(C)c1-c1c(N)c(C(N)=O)nc2c(F)cccc12 (single isomer, unassigned) [Compound 38] . 0.05 to 0.5 µM

====

Parameter: IC50

Value wanted: IC50 (PKMYT1 (Homo sapiens, UniProt Q99640)) of entry Cc1ccc(O)c(C)c1-c1c(N)c(C(N)=O)nc2c(C(F)(F)F)cccc12 (single isomer, unassigned) [Compound 31] ≥ 5000 nM

Value wanted: IC50 (PKMYT1 (Homo sapiens, UniProt Q99640)) of entry "Cc1c(-c2c(N)c(C(N)=O)cc3nccnc23)ccnc1O" ≥ 5000 nM

Value wanted: IC50 (PKMYT1 (Homo sapiens, UniProt Q99640)) of entry "Cc1ccc2[nH]ncc2c1-c1c(N)c(C(N)=O)cc2nccnc12" 50 to 500 nM

Value wanted: IC50 (PKMYT1 (Homo sapiens, UniProt Q99640)) of entry Cc1ccc(O)c(C)c1-c1c(N)c(C(N)=O)nc2cccnc12 [Compound 3] < 50 nM

Value wanted: IC50 (PKMYT1 (Homo sapiens, UniProt Q99640)) of entry NC(=O)c1nc2cccnc2c(-c2cccc3[nH]nc(F)c23)c1N (atropisomer, axis not shown) [Compound 305] 50 to 500 nM

Value wanted: IC50 (PKMYT1 (Homo sapiens, UniProt Q99640)) of entry Cc1c(Cl)cncc1C1=c2ncccc2=NC(C(N)=O)C1N (centres unmarked) [Compound 240] < 50 nM

Value wanted: IC50 (PKMYT1 (Homo sapiens, UniProt Q99640)) of entry Cc1cnc2c(-c3c(C)ccc(O)c3C)c(N)c(C(N)=O)cc2n1 (atropisomer, axis not shown) < 50 nM

Value wanted: IC50 (PKMYT1 (Homo sapiens, UniProt Q99640)) of entry "NC(=O)c1nc2cccnc2c(-c2cnn3c2CCCC3)c1N" 1000 to 5000 nM

Value wanted: IC50 (PKMYT1 (Homo sapiens, UniProt Q99640)) of entry "Cc1cnc2c(-c3cccc(O)c3C)c(N)c(C(N)=O)cc2c1" 50 to 500 nM

Value wanted: IC50 (PKMYT1 (Homo sapiens, UniProt Q99640)) of entry NC(=O)c1cc2nccnc2c(-c2cccc(O)c2Cl)c1N [Compound 97] < 50 nM

Value wanted: IC50 (PKMYT1 (Homo sapiens, UniProt Q99640)) of entry "Cc1c(CO)cccc1-c1c(N)c(C(N)=O)nc2cccnc12" ≥ 5000 nM

Value wanted: IC50 (PKMYT1 (Homo sapiens, UniProt Q99640)) of entry "Cc1c(O)cccc1-c1c(N)c(C(N)=O)nc2cccc(F)c12" 50 to 500 nM

Value wanted: IC50 (PKMYT1 (Homo sapiens, UniProt Q99640)) of entry Cc1c(O)cccc1-c1c(N)c(C(N)=O)cc2ccn(C)c(=O)c12 (atropisomer, axis not shown) 500 to 1000 nM

Value wanted: IC50 (PKMYT1 (Homo sapiens, UniProt Q99640)) of entry "Cc1ccc(O)c(C)c1-c1c(N)c(C(N)=O)cc2cc(Cl)cnc12" < 50 nM

Value wanted: IC50 (PKMYT1 (Homo sapiens, UniProt Q99640)) of entry "Cc1ccc(O)c(C)c1-c1c(N)c(C(N)=O)nc2cc(Cl)ccc12" 500 to 1000 nM

Value wanted: IC50 (PKMYT1 (Homo sapiens, UniProt Q99640)) of entry "Cc1n[nH]c2cccc(-c3cc(C(N)=O)cc4nccnc34)c12" ≥ 5000 nM

Value wanted: IC50 (PKMYT1 (Homo sapiens, UniProt Q99640)) of entry COc1nc2cc(C(N)=O)c(N)c(-c3cccc(O)c3C)c2nc1C (atropisomer, axis not shown) [Compound 193] ≥ 5000 nM

====

test system: phosphorylation of CDK1 at Thr14 in HCC1806 cells; assay: Cell lysate AlphaLISA assay measuring inhibition of phosphorylation of CDK1 Thr14; format: cell-based; conditions: 4 hours, read-out: Cellular IC50
Parameter: IC50

Value wanted: IC50 (phosphorylation of CDK1 at Thr14 in HCC1806 cells) of entry Cc1ccc(O)c(C)c1-c1c(N)c(C(N)=O)nc2ccc(F)cc12 (atropisomer, axis not shown; (P)) [Compound 24] ≥ 5000 nM

Value wanted: IC50 (phosphorylation of CDK1 at Thr14 in HCC1806 cells) of entry Cc1c(O)cccc1-c1c(N)c(C(N)=O)cc2ncccc12 (atropisomer, axis not shown; (M)) [Compound 68] 500 to 1000 nM

Value wanted: IC50 (phosphorylation of CDK1 at Thr14 in HCC1806 cells) of entry COc1nc2c(-c3cccc(O)c3C)c(N)c(C(N)=O)cc2nc1C (atropisomer, axis not shown) [Compound 218] 500 to 1000 nM

Value wanted: IC50 (phosphorylation of CDK1 at Thr14 in HCC1806 cells) of entry Cc1c(O)cccc1-c1c(N)c(C(N)=O)cc2ncc(C(F)(F)F)nc12 [Compound 139] 50 to 500 nM

Value wanted: IC50 (phosphorylation of CDK1 at Thr14 in HCC1806 cells) of entry Cc1c(O)cccc1-c1c(N)c(C(N)=O)nc2cccnc12 (single isomer, unassigned) [Compound 5] 1000 to 5000 nM

Value wanted: IC50 (phosphorylation of CDK1 at Thr14 in HCC1806 cells) of entry Cc1c(O)cccc1-c1c(N)c(C(N)=O)nc2cccc(C#N)c12 (atropisomer, axis not shown) [Compound 242] < 50 nM

Value wanted: IC50 (phosphorylation of CDK1 at Thr14 in HCC1806 cells) of entry Cc1c(O)cccc1-c1c(N)c(C(N)=O)nc2cc(C(F)(F)F)cnc12 [Compound 161] 50 to 500 nM

Value wanted: IC50 (phosphorylation of CDK1 at Thr14 in HCC1806 cells) of entry Cc1c(F)cncc1C1=c2ncccc2=NC(C(N)=O)C1N (stereo not drawn) [Compound 225] ≥ 5000 nM

Value wanted: IC50 (phosphorylation of CDK1 at Thr14 in HCC1806 cells) of entry Cc1c(O)cccc1-c1c(N)c(C(N)=O)cc2nc(C(F)(F)F)cnc12 (atropisomer, axis not shown; (M)) [Compound 103] ≥ 5000 nM

Value wanted: IC50 (phosphorylation of CDK1 at Thr14 in HCC1806 cells) of entry Cc1ccc(O)c(C)c1-c1c(N)c(C(N)=O)cc2nccnc12 (single isomer, unassigned) [Compound 85] ≥ 5000 nM

Value wanted: IC50 (phosphorylation of CDK1 at Thr14 in HCC1806 cells) of entry Cc1ccc(O)c(C)c1-c1c(N)c(C(N)=O)cc2nccnc12 (single isomer, unassigned) [Compound 83] 50 to 500 nM

Value wanted: IC50 (phosphorylation of CDK1 at Thr14 in HCC1806 cells) of entry Cc1ccc(O)cc1-c1c(N)c(C(N)=O)cc2nccnc12 [Compound 123] 1000 to 5000 nM

Value wanted: IC50 (phosphorylation of CDK1 at Thr14 in HCC1806 cells) of entry COc1ccc2nc(C(N)=O)c(N)c(-c3cccc(O)c3C)c2n1 (atropisomer, axis not shown) [Compound 175] ≥ 5000 nM

Value wanted: IC50 (phosphorylation of CDK1 at Thr14 in HCC1806 cells) of entry Cc1ccc(O)c(C)c1-c1c(N)c(C(N)=O)nc2ccccc12 (atropisomer, axis not shown; (M)) [Compound 44] 1000 to 5000 nM

Value wanted: IC50 (phosphorylation of CDK1 at Thr14 in HCC1806 cells) of entry Cc1ccc(O)c(C)c1-c1c(N)c(C#N)cc2nccnc12 (atropisomer, axis not shown) [Compound 301] ≥ 5000 nM
